// values below are reported GI50
- System: HT-29
- testName: NCI tumour cell line growth inhibition, 48 h
The source made the active and inactive calls. Rule as the data show it: active = GI50 up to about 1.1 µM and inactive = higher.

Examples with answers:
molecule	systemName	GI50
CC(=O)O[C@H]1C(=O)[C@@]2(C)[C@H]([C@H](OC(=O)c3ccccc3)[C@]3(O)C[C@H](OC(=O)[C@H](O)[C@@H](NC(=O)C(C)(C)C)c4ccccc4)C(C)=C1C3(C)C)[C@]1(OC(C)=O)CO[C@@H]1C[C@@H]2O	HT-29	0.0414 µM (active)
CC1=C(SCCO)C(=O)c2ccccc2C1=O	HT-29	19.3 µM (inactive)
CCN(CC)CCCNc1ccc2nc(C)n3c4ccc(O)cc4c(=O)c1c23	HT-29	1.17 µM (inactive)
N/C(=N\O)N/N=C/c1ncccc1O	HT-29	13.4 µM (inactive)
O=C(O)C#Cc1ccc([N+](=O)[O-])cc1	HT-29	> 100 µM (inactive)

*Q* Complete the entry with GI50 for COc1cccc2c(=O)c3c(O)c4cc(N(C)C)ccc4c(OC(C)=O)c3oc12
*A* 14.1 µM (inactive)

*Q* Complete the entry with GI50 for Cc1cccc2c(NCCCN(C)C)c3c([N+](=O)[O-])ccc(C)c3nc12
*A* 0.0809 µM (active)

*Q* Complete the entry with GI50 for CCOC(=O)/C=C1/C(CCCOCc2ccccc2)C2CCCC23CC2(CCN13)OCCO2 (centres undefined)
*A* 16.9 µM (inactive)

*Q* Complete the entry with GI50 for Cc1nn(C)c(=O)c2nn(-c3ccccc3)c(C)c12
*A* > 100 µM (inactive)
